measuredOn: BTK (Homo sapiens)
Construct: endogenous in cells; host or cells: TMD-8 cells
measurementProtocol: BTK degradation in TMD-8 cells, HTRF assay after 6 h treatment
Format: cell-based
conditionDetails: IC50 (DC50) of BTK degradation
outcomeMeasure: DC50 (nM)
Numeric answer only, unit nM assumed.

Challenge: State its DC50 on BTK (Homo sapiens): Cc1cc(-c2n[nH]c3ncc(-c4ccc(N5CCN(CCc6ccc([C@H]7CCC(=O)NC7=O)cn6)CC5)cc4)cc23)ccc1[C@@H](C)NC(=O)c1noc(C(C)(C)C)n1
Response given: 1.11

Challenge: What do you have for Cc1cc(-c2n[nH]c3ncc(-c4ccc(CCN5CCN(c6ccc(N7CCC(=O)NC7=O)cc6)CC5)cc4)cc23)ccc1[C@@H](C)NC(=O)c1noc(C(C)(C)C)n1 ?
Response given: 5.84

Challenge: What do you have for Cc1cc(-c2n[nH]c3ncc(-c4ccc(C5CCN(CCc6ccc(C7CCC(=O)NC7=O)cc6)CC5)nc4)cc23)ccc1[C@@H](C)NC(=O)c1noc(C(C)(C)C)n1 (some centres unmarked) ?
Response given: 3.5

Challenge: What do you have for Cc1cc(-c2n[nH]c3ncc(-c4ccc(C5CCN(CC6CCN(c7ccc(N8CCC(=O)NC8=O)cc7)CC6)CC5)cc4)cc23)c(F)cc1CNC(=O)c1noc(C(C)(C)C)n1 ?
Response given: 16.1

Challenge: What do you have for Cc1cc(-c2n[nH]c3ncc(-c4ccc(N5CCN(CCc6ccc(C7CCC(=O)NC7=O)cc6)CC5)cc4)cc23)ccc1CNC(=O)c1cn(C(C)(C)C)nn1 (centres unmarked) ?
Response given: 4.13

---

measuredOn: BTK (Homo sapiens, UniProt Q06187)
Construct: endogenous in cells; host or cells: TMD-8 cells
Sequence (Q06187 whole entry): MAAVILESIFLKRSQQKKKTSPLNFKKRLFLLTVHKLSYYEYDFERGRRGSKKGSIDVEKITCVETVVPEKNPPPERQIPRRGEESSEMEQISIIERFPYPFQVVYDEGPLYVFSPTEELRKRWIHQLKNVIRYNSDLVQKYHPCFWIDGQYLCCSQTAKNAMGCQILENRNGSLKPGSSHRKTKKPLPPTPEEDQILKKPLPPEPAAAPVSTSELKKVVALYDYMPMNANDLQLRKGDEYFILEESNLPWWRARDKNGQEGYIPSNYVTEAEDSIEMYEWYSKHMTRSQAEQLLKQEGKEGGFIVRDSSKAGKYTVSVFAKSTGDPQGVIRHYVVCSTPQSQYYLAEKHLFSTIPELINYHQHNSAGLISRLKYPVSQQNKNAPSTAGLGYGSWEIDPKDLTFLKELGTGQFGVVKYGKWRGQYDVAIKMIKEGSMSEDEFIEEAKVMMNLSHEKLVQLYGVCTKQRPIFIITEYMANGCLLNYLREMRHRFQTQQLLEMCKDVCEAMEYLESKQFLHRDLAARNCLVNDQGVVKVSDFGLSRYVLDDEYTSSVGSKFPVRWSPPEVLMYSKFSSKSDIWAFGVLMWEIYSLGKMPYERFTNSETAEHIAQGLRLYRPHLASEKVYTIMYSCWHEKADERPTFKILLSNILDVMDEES
measurementProtocol: BTK degradation in TMD-8 cells, HTRF assay after 6 h treatment
Type: cell-based
conditionDetails: IC50 (DC50) of BTK degradation
outcomeMeasure: DC50 (nM)
Numeric answer only, unit nM assumed.

Challenge: Endpoint output: DC50 of Cc1cc(-c2n[nH]c3ncc(-c4ccc(N5CCN(CCc6ccc(N7CCC(=O)NC7=O)c(C)c6)CC5)cc4)cc23)ccc1[C@@H](C)NC(=O)c1noc(C(C)(C)C)n1 [Example 119] . Value?
Response given: 2.12

Challenge: What do you have for CC(C)(C)c1noc(C(=O)NCc2ccc(-c3n[nH]c4ncc(-c5ccc(C6CCN(CCC7CCN(c8ccc(N9CCC(=O)NC9=O)c(F)c8)CC7)CC6)cc5)cc34)cc2F)n1 [Example 16] ?
Response given: 9.04

Challenge: What do you have for Cc1cc(-c2n[nH]c3ncc(-c4ccc(N5CCN(CC6CCN(c7ccc(N8CCC(=O)NC8=O)c(C)c7)CC6)CC5)cc4)cc23)ccc1[C@@H](C)NC(=O)c1cc(C(C)(C)C)on1 [Example 172] ?
Response given: 20.8

Challenge: What do you have for Cc1cc(-c2n[nH]c3ncc(-c4ccc(N5CC6CC5CN6CCc5ccc(C6CCC(=O)NC6=O)cc5)cn4)cc23)ccc1[C@@H](C)NC(=O)c1noc(C(C)(C)C)n1 (stereo partly shown) [Example 133] ?
Response given: 1.96

Challenge: What do you have for Cc1cc(-c2n[nH]c3ncc(-c4ccc(C5CCN(CCCOc6ccc(C7CCC(=O)NC7=O)c(C)c6)CC5)cc4)cc23)ccc1CNC(=O)c1nc(C(C)(C)C)no1 (stereo not shown) [Example 27] ?
Response given: 9.25

Challenge: What do you have for COc1cc(-c2cnc3[nH]nc(-c4ccc([C@@H](C)NC(=O)c5noc(C(C)(C)C)n5)c(C)c4)c3c2)ccc1N1CCN(CC2CCN(c3ccc(N4CCC(=O)NC4=O)cc3)CC2)CC1 [Example 120] ?
Response given: 5.82

Challenge: What do you have for Cc1cc(-c2n[nH]c3ncc(-c4ccc(N5CCN(C6CC(c7ccc(C8CCC(=O)NC8=O)cc7)C6)CC5)cc4)cc23)ccc1[C@@H](C)NC(=O)c1noc(C(C)(C)C)n1 (stereo partly shown) [Example 214] ?
Response given: 1.3

Challenge: What do you have for Cc1cc(-c2n[nH]c3ncc(-c4ccc(N5CCN(CCn6nc(C)c(N7CCC(=O)NC7=O)c6C)CC5)cc4)cc23)ccc1[C@@H](C)NC(=O)c1noc(C(C)(C)C)n1 [Example 164] ?
Response given: 2.05

Challenge: What do you have for Cc1cc(-c2n[nH]c3ncc(-c4ccc(C5(O)CCN(CC6CCN(c7ccc(N8CCC(=O)NC8=O)cc7)CC6)CC5)cn4)cc23)ccc1[C@@H](C)NC(=O)c1nc(C(C)(C)C)no1 [Example 204] ?
Response given: 2.02

Challenge: What do you have for Cc1cc(-c2n[nH]c3ncc(-c4ccc(N5CCN(CCc6ccc(C7CCC(=O)NC7=O)cc6)CC5)cc4)cc23)ccc1[C@@H](C)NC(=O)c1noc(C(C)(C)C)n1 (stereo partly shown) [Example 35] ?
Response given: 1.9

---

Would you kindly list DC50 for each of these molecules?
measuredOn: BTK (Homo sapiens)
Construct: endogenous in cells; host or cells: TMD-8 cells
measurementProtocol: BTK degradation in TMD-8 cells, HTRF assay after 6 h treatment
Type: cell-based
conditionDetails: IC50 (DC50) of BTK degradation
Numeric answer only, unit nM assumed.

Challenge: Endpoint output: DC50 of COc1cc(N2CCC(CCN3CCN(c4ccc(-c5cnc6[nH]nc(-c7ccc([C@@H](C)NC(=O)c8noc(C(C)(C)C)n8)c(C)c7)c6c5)cc4)CC3)CC2)ccc1C1CCC(=O)NC1=O (some centres unmarked) . Value?
Response given: 15.1

Challenge: What do you have for Cc1c(CNC(=O)c2noc(C(C)(C)C)n2)ccc(-c2n[nH]c3ncc(-c4ccc(N5CCN(CC6CCN(c7ccc(N8CCC(=O)NC8=O)cc7)CC6)CC5)cc4)cc23)c1F ?
Response given: 17.8

Challenge: What do you have for Cc1cc(-c2n[nH]c3ncc(-c4ccc(N5CCN(CCc6ccc(C7CCC(=O)NC7=O)c(Cl)c6)CC5)cc4)cc23)ccc1CNC(=O)c1noc(C(C)(C)C)n1 (centres unmarked) ?
Response given: 3.83

Challenge: What do you have for Cc1cc(-c2n[nH]c3ncc(-c4ccc(N5CCN(CC6CCN(c7ccc(N8CCC(=O)NC8=O)cc7)CC6)CC5)cc4)cc23)ccc1[C@@H](C)NC(=O)c1nnc(C(C)(C)C)o1 ?
Response given: 9.45

Challenge: What do you have for Cc1cc(-c2n[nH]c3ncc(-c4ccc(N5CCN(CC6CCN(c7ccc(N8CC(=O)NC8=O)cc7)CC6)CC5)cc4)cc23)ccc1[C@@H](C)NC(=O)c1nc(C(C)(C)C)no1 ?
Response given: 19

---

measuredOn: BTK (Homo sapiens, UniProt Q06187)
Construct: endogenous in cells; host or cells: TMD-8 cells
measurementProtocol: BTK degradation in TMD-8 cells, HTRF assay after 6 h treatment
Type: cell-based
conditionDetails: IC50 (DC50) of BTK degradation
Would you kindly list DC50 for each of these compounds?
Numeric answer only, unit nM assumed.

Challenge: Endpoint output: DC50 of Cc1cc(-c2n[nH]c3ncc(-c4ccc(C5CCN(CCc6ccc(C7CCC(=O)NC7=O)cc6)CC5)cc4)cc23)ccc1CNC(=O)c1noc(C(C)(C)C)n1 (stereo not shown) [Example 3] . Value?
Response given: 0.714

Challenge: What do you have for Cc1cc(-c2n[nH]c3ncc(-c4ccc(N5CCN(CC6CCN(c7cccc(N8CCC(=O)NC8=O)c7)CC6)CC5)cc4)cc23)ccc1[C@@H](C)NC(=O)c1noc(C(C)(C)C)n1 [Example 138] ?
Response given: 8.6

Challenge: What do you have for Cc1cc(-c2n[nH]c3ncc(-c4ccc(C5CCN(CCc6ccc(C7CCC(=O)NC7=O)cc6)CC5)cc4)cc23)ccc1CNC(=O)c1nc(C(C)(C)C)no1 (stereo not shown) [Example 9] ?
Response given: 1.9

Challenge: What do you have for Cc1cc(-c2n[nH]c3ncc(-c4ccc(C5(O)CCN(CC6CCN(c7ccc(N8CCC(=O)NC8=O)cc7)CC6)CC5)cc4)cc23)ccc1[C@@H](C)NC(=O)c1nc(C(C)(C)C)no1 [Example 201] ?
Response given: 1.79

Challenge: What do you have for Cc1cc(-c2n[nH]c3ncc(-c4ccc(C5CCN(CCc6ccc(C7CCC(=O)NC7=O)c7ccccc67)CC5)cc4)cc23)ccc1CNC(=O)c1nc(C(C)(C)C)no1 (stereo not shown) [Example 25] ?
Response given: 8.16

Challenge: What do you have for Cc1cc(-c2n[nH]c3ncc(-c4ccc(N5CCN(CCc6ccc(N7CCC(=O)NC7=O)nc6)CC5)cc4)cc23)ccc1[C@@H](C)NC(=O)c1noc(C(C)(C)C)n1 [Example 159] ?
Response given: 56.3

---

measuredOn: BTK (Homo sapiens)
Construct: endogenous in cells; host or cells: TMD-8 cells
measurementProtocol: BTK degradation in TMD-8 cells, HTRF assay after 6 h treatment
Assay type: cell-based
conditionDetails: IC50 (DC50) of BTK degradation
Each record is given Met if its reported DC50 is strictly below 8 nM. Records at or above 8 nM are given Not met.

Challenge: Is DC50 of Cc1cc(-c2n[nH]c3ncc(-c4ccc(N5CCN(CCc6ccc([C@@H]7CCC(=O)NC7=O)c(F)c6)CC5)cc4)cc23)ccc1[C@@H](C)NC(=O)c1noc(C(C)(C)C)n1 strictly below 8 nM?
Response given: Met

Challenge: What do you have for Cc1cc(-c2n[nH]c3ncc(-c4ccc(N5CCN(CCC6CCN(c7ccc([C@@H]8CCC(=O)NC8=O)cc7)CC6)CC5)cc4)cc23)ccc1CNC(=O)c1noc(C(C)(C)C)n1 ?
Response given: Met

Challenge: What do you have for Cc1cc(-c2n[nH]c3ncc(-c4ccc(N5CCN(CC6CCN(c7ccc(N8CCC(=O)NC8=O)cc7C)CC6)CC5)cc4)cc23)ccc1[C@@H](C)NC(=O)c1noc(C(C)(C)C)n1 ?
Response given: Not met

Challenge: What do you have for Cc1cc(-c2n[nH]c3ncc(-c4ccc(C5CCN(CC6CCN(c7ccc(N8CCC(=O)NC8=O)cc7)CC6)CC5)nc4)cc23)ccc1CNC(=O)c1noc(C(C)(C)C)n1 ?
Response given: Met
